Target or system Peptidyl-prolyl cis-trans isomerase A (Homo sapiens, UniProt P62937); metric pKd; compiled from varied reports.
Conceptually, pKd converts a concentration in mol/L into minus its log10.

Guide cases for pKd, answers given:
CC[C@@H]1NC(=O)[C@H]([C@H](O)[C@H](C)C/C=C/c2ccc(CNC(=O)c3ccc(-c4c5ccc(=O)cc-5oc5cc(O)ccc45)c(C(=O)O)c3)cc2)N(C)C(=O)[C@H](C(C)C)N(C)C(=O)[C@H](CC(C)C)N(C)C(=O)[C@H](CC(C)C)N(C)C(=O)[C@@H](C)NC(=O)[C@H](C)NC(=O)[C@H](CC(C)C)N(C)C(=O)[C@H](C(C)C)NC(=O)[C@H](CC(C)C)N(C)C(=O)CN(C)C1=O : 7.92
C/C=C/C[C@@H](C)[C@@H](O)[C@H]1C(=O)N[C@@H](CC)C(=O)N(C)[C@H](C)C(=O)N(C)[C@@H]([C@H](C)COCCN2CCOCC2)C(=O)N[C@@H](C(C)C)C(=O)N(C)[C@@H](CC(C)C)C(=O)N[C@@H](C)C(=O)N[C@H](C)C(=O)N(C)[C@@H](CC(C)C)C(=O)N(C)[C@@H](CC(C)C)C(=O)N(C)[C@@H](C(C)C)C(=O)N1C : 8.96
COC(=O)[C@]12CCCN1C(=O)[C@](Cc1ccc3ccccc3c1)(NC(=O)OCc1ccccc1)CC2 : 5.33
C/C=C/C[C@@H](C)[C@@H](O)[C@H]1C(=O)N[C@@H](CC)C(=O)N(C)[C@H](C)C(=O)N(CC)[C@@H](C(C)C)C(=O)N[C@@H](C(C)C)C(=O)N(C)[C@@H](CC(C)C)C(=O)N[C@@H](C)C(=O)N[C@H](C)C(=O)N(C)[C@@H](CC(C)C)C(=O)N(C)[C@@H](CC(C)C)C(=O)N(C)[C@@H](C(C)C)C(=O)N1C : 7.96
C/C=C/C[C@@H](C)[C@@H](O)[C@H]1C(=O)N[C@@H](CC)C(=O)N(C)[C@H](C)C(=O)N(C)[C@@H]([C@H](C)CC#N)C(=O)N[C@@H](C(C)C)C(=O)N(C)[C@@H](CC(C)C)C(=O)N[C@@H](C)C(=O)N[C@H](C)C(=O)N(C)[C@@H](CC(C)C)C(=O)N(C)[C@@H](CC(C)C)C(=O)N(C)[C@@H](C(C)C)C(=O)N1C : 8.89

Ask | Fill in the recorded pKd for this compound, with Peptidyl-prolyl cis-trans isomerase A (Homo sapiens, UniProt P62937) as test system: CCN(CC)c1nc(C)c([N+](=O)[O-])c(NC(=S)Nc2ccc(C)c(Cl)c2)n1
Reply | 4.13

Ask | Try the compound CCN(CC)c1nc(C)c([N+](=O)[O-])c(NC(=S)Nc2cccc(Br)c2)n1
Reply | 4.10
